test system: A-431; assay: Antiproliferative activity against EGFR over-expressing human A431 cells after 48 hrs by MTT assay; format: functional, cell-based; settings: a-431
reportedEndpoint: IC50 (µM)
Supply the numeric figure in µM, leaving out any unit text.

{"molecule": "O=C(Nc1ccc2nccc(Nc3cccc(Cl)c3)c2c1)C1CCC2(CC1)OOC1(O2)C2CC3CC(C2)CC1C3 (stereo in doubt; 14)", "IC50 / µM": 13.6}

The molecule O=C(Nc1ccc2ncnc(Nc3cccc(Cl)c3)c2c1)C1CCC2(CC1)OCC1(OO2)C2CC3CC(C2)CC1C3 (stereo in doubt; 8) showed IC50 equal to 23.1

* * *

IC50 values, listed per item
biological target: Epidermal growth factor receptor (Homo sapiens, UniProt P00533, L858R)
Sequence (P00533 25-1210 L858R limits assumed): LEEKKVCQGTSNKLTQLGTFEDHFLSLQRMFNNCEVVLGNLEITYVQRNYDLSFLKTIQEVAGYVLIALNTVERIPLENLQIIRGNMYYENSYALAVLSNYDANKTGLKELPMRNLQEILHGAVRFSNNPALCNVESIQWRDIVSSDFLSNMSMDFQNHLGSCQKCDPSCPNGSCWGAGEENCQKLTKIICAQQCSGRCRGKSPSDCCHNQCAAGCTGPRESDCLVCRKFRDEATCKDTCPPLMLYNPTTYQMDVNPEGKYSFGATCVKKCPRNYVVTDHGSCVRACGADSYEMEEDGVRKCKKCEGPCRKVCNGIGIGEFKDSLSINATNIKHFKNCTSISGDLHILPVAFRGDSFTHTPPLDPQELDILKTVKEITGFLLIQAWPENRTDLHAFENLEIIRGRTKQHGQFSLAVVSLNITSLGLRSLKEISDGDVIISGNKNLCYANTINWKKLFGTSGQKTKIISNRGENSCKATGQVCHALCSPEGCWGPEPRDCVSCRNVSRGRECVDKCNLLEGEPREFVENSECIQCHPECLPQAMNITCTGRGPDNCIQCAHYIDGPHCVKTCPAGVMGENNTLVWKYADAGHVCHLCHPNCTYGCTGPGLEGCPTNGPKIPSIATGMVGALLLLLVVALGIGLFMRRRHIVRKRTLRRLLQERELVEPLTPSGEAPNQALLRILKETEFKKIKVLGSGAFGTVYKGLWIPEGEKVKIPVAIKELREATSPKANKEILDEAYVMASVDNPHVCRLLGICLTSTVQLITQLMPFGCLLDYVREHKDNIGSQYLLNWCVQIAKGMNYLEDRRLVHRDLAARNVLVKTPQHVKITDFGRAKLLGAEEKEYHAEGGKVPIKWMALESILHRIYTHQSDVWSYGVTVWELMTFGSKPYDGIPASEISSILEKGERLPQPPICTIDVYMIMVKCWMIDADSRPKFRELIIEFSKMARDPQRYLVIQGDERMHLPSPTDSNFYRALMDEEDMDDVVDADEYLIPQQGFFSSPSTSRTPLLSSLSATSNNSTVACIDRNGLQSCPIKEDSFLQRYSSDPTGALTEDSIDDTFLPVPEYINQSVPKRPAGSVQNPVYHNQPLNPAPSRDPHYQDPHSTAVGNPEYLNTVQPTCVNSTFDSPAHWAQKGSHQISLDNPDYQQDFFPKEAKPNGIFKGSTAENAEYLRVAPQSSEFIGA
Number only, in nM; omit the unit.

// solved cases for IC50 follow
{"molecule": "O=C(Nc1ccc2ncnc(Nc3cccc(Cl)c3)c2c1)C1CCC2(CC1)OOC1(OO2)C2CC3CC(C2)CC1C3 (stereo not drawn)", "IC50, nM": 374}
{"molecule": "O=C(Nc1ccc2nccc(Nc3cccc(Cl)c3)c2c1)C1CCC2(CC1)OOC1(O2)C2CC3CC(C2)CC1C3 (stereo in doubt; 14)", "IC50, nM": 146}
{"molecule": "O=C(Nc1ccc2nccc(Nc3cccc(Cl)c3)c2c1)C1CCC2(CC1)OCC1(OO2)C2CC3CC(C2)CC1C3 (stereo not drawn)", "IC50, nM": 132}
{"molecule": "CC1(C)OOC2(CCC(C(=O)Nc3ccc4ncnc(Nc5cccc(Cl)c5)c4c3)CC2)OO1", "IC50, nM": 17.1}
{"molecule": "O=C(Nc1ccc2ncnc(Nc3cccc(Cl)c3)c2c1)C1CCC2(CC1)OCC1(OO2)C2CC3CC(C2)CC1C3 (stereo in doubt; 8)", "IC50, nM": 175}
{"molecule": "O=C(Nc1ccc2ncnc(Nc3cccc(Cl)c3)c2c1)C1CCC2(CC1)OOC1(CCCCC1)OO2", "IC50, nM": 112}
{"molecule": "O=C(Nc1ccc2ncnc(Nc3cccc(Cl)c3)c2c1)C1CCCCC1", "IC50, nM": 6.96}

Note: attention shifts to another entry.
Note to self: IC50 of O=C(Nc1ccc2ncnc(Nc3cccc(Cl)c3)c2c1)C1CCC2(CC1)OCC1(OO2)C2CC3CC(C2)CC1C3 (stereo in doubt; 7) with Epidermal growth factor receptor (Homo sapiens, UniProt P00533, L858R) was 112
